- System: RARb homodimer (NR concentration 270 nM)
- protocolDetails: PBM binding z-score (relative to random genomic background probes); higher = stronger binding; sequences stand for … in GC…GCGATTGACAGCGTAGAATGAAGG
recordedMetric: PBM binding z-score

> print(dat)
                macromoleculesequence                            measuredtarget  resultnumber
1  TAGCCTAGGTCACTGGGCCAGTATAGTACGCATC  RARb homodimer (NR concentration 270 nM)          3.06
2  ACTTACGGGTCAACAAGGTTATAGCACGCGTATA  RARb homodimer (NR concentration 270 nM)          3.84
3  CAAACTAGGTCACGAAAGATCAAAGTCGAATGAC  RARb homodimer (NR concentration 270 nM)           3.2
4  CCCACTGGGCCAAGGTCATTGATCAGTCAAAGCA  RARb homodimer (NR concentration 270 nM)          3.19
5  GCTAGTTGGTCAGTAAAAGGTCACACACCGGTCG  RARb homodimer (NR concentration 270 nM)          5.15
6  CTCGAAAGGTCGTGCTCAGGTGAGTATTCCAAAC  RARb homodimer (NR concentration 270 nM)          3.11
7  TCTAGTTGGTCAAAAGTCACACACTCGAAATGCG  RARb homodimer (NR concentration 270 nM)          1.01

----------
- System: RARa:RXR (NR concentration 270 nM, RXRa partner concentration 90 nM)
- protocolDetails: PBM binding z-score (relative to random genomic background probes); higher = stronger binding; sequences stand for … in GC…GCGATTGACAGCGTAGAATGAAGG
Response field class: enum, chosen by comparing PBM binding z-score against class 1 = under 0.5, class 2 = from 0.5 up to 2, class 3 = 2 and over

> print(dat)
                 macromoleculesequence      cat
 1  TCAAGCAGGCCAGAGGGTCACTCAAGAGGTACGG  class 3
 2  CGTCCAAGGGCATAGGAGGTCAGTGAAGACAGAT  class 3
 3  TAGCCTAGGTCAGGTCGGGCCAGTATACGCTATA  class 2
 4  AGAATGAGGTTACCTAAGATCAGGGAAACGCTTG  class 3
 5  TCTGCTAGGTCAACGATGATCAGCTAATCTGCTA  class 2
 6  CAAACTAGGTCACCGGAAGGTCAATGTCCGCATG  class 3
 7  TCTTGTAGATCAATAGTGGTTAAGAAAGTGCGCT  class 1
 8  CATACTAGGTCACAGAGGTCAAAGTCCGTGCGTA  class 3
 9  TCATATAGTTAAAAGGTGAAAGTCGGTGTGGTAA  class 3
10  TCTTGGAGGACACGAAGGTCAGAGCTTTCCAGAG  class 2
11  ACAGACAGGTCAGTGAAGGTAACTCAGCTGGACG  class 2
12  AGAAAGAGGTTATACGTAGATCAGGGAAGAAAGT  class 3
13  CGTCCAAGATCAATGCTAGGTCAGTGAAAGCATT  class 2
14  AGTCAAAGTTCACTAGGGAACGTAAGATTCAGCT  class 3
15  CGCGAAAGGTCGTGCTCAGGTGAGTATACCAAAC  class 3
16  AGAACTAGGGCAATGAGTTGATAGCACGGGTGGC  class 1
17  GCGACTGGGGCATCAGCAGGTTAGCATAACTTAA  class 1
18  CGTCAAAGATCAACTAAGGTAACGTAAAGCACGC  class 2
19  TCTTGTAGATCAGCAGGTAAAGAAAGCTGGCCAA  class 1
20  TCTTGTAGATCAAGCAGGTTAATAAAGCCTGAGT  class 1
21  AGAACGAGGGCACGCTGAGTTGGTAGCAGAGTAG  class 2
22  AGAATGAGGTGATTAAGATCAGGGAATTGCGGTC  class 1
23  ACTATTAGTTGACTTGGGGCAACCGATACGACGC  class 1
24  AGAACGAGGGCAATGAGTTGATAACACGGGTGGC  class 1

Every entry's value here was drawn from the supplement of paper PMC6555819.
